For each entry below, report its viability, T/C value.
Tested on: 253994-281-T-J1-PDC KRAS-mutant spheroids with HUVEC/MSC, viability;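 further: spheroids exposed to agents for seven days before readout; percent of DMSO vehicle control viability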
ASSAY_NAME: Anticancer human tumor 253994-281-T-J1-PDC patient-derived colorectal carcinoma cell line growth inhibition [KRAS2]
RUN_CONDITIONS: second compound 1 µM; first compound 0.1 µM; stronger effect = lower value
One number for each entry, in %.

Some compounds with known viability, T/C results, for comparison:
COMPOUND: CC1(C)CCC(CN2CCN(c3ccc(C(=O)NS(=O)(=O)c4ccc(NCC5CCOCC5)c([N+](=O)[O-])c4)c(Oc4cnc5[nH]ccc5c4)c3)CC2)=C(c2ccc(Cl)cc2)C1 + C=CC(=O)N1CCN(c2nc(OCC3CCCN3C)nc3c2CCN(c2cccc4cccc(C)c24)C3)CC1CC#N
MEASURE_UNIT: %
viability, T/C: 94.5

COMPOUND: CC1COCCN1c1cc(-c2ccnn2C)c2ccnc(-c3ccn[nH]3)c2n1 (centres undefined) + C=CC(=O)N1CCN(c2nc(=O)n(-c3c(C)ccnc3C(C)C)c3nc(-c4c(O)cccc4F)c(F)cc23)C(C)C1
MEASURE_UNIT: %
viability, T/C: 72.7

COMPOUND: CCN1CCN(Cc2ccc(Nc3ncc(F)c(-c4cc(F)c5nc(C)n(C(C)C)c5c4)n3)nc2)CC1 + C=CC(=O)N1CCN(c2nc(=O)n(-c3c(C)ccnc3C(C)C)c3nc(-c4c(O)cccc4F)c(F)cc23)C(C)C1
MEASURE_UNIT: %
viability, T/C: 81.4

Next compound, viability, T/C to be filled in.
Entry under test: CC1(C)CCC(CN2CCN(c3ccc(C(=O)NS(=O)(=O)c4ccc(NCC5CCOCC5)c([N+](=O)[O-])c4)c(Oc4cnc5[nH]ccc5c4)c3)CC2)=C(c2ccc(Cl)cc2)C1 + CNCc1ccccc1-c1csc(C(C)Nc2nc(C)nc3cc(OC)c(OC)cc23)c1 . Its viability, T/C was 83.7
